Assay Method Text: Vibrio cholerae quorum sensing activators, luminescence (AID 686977)
Assay Context: V. cholerae quorum sensing reporter, 6 h, active compounds read high; dose 50, dose unit µM unless noted
In all, about 9,400 compounds went through this assay and fewer than 10 were called active. About 5% were inconclusive and are not listed. These entries were drawn from the full list. Measured potencies and affinities stand elsewhere.

Compound | luminescence
CCC(=O)NCCCOc1ccccc1 | 0
CC(C)C(NC(=O)c1cccs1)c1nnc(SCC(=O)Nc2nccs2)n1C (stereo unspecified) | 40
CCCCN(C(=O)c1cnc2n(c1=O)CCS2)c1ccccc1 | 0
CC(=O)c1sc(NC(=O)c2ccccc2F)nc1C | 80
CCc1ccc(CCC(=O)Nc2ccc(C)c(C)c2)o1 | 0
COc1ccc(NC(=O)CSc2nc(O)cc(=O)n2C)cc1 | 0

###

Assay Method Text: Vibrio cholerae quorum sensing activators, luminescence (AID 686977)
Assay Context: V. cholerae quorum sensing reporter, 6 h, active compounds read high; dose 50, dose unit µM unless noted
In all, about 9,400 compounds went through this assay and fewer than 10 were called active. Roughly 5% stayed inconclusive and do not appear here. The list is a sample of the results. Potency and affinity values are given separately.
Form field: luminescence (one value per entry).
Assay Endpoint: luminescence

Molecule | Assay Endpoint | Measured Value
Cc1nc(C)c(C(=O)C2=C(O)C(=O)N(CCN3CCOCC3)C2c2ccco2)s1 (stereo not given) | luminescence | 0 (inactive)
CCOC(=O)c1c(-c2ccccc2)csc1NC(=O)c1ccc(S(=O)(=O)N2CC(C)OC(C)C2)cc1 (stereo not given) | luminescence | 40 (inactive)
CCc1nc(SCC(N)=O)c2c(=O)n(C)c(=O)n(C)c2n1 | luminescence | 40 (inactive)
COc1ccc(-n2nnnc2SCC#CCO)cc1 | luminescence | 0 (inactive)
CNC(=O)NC(=O)CSc1ncc(C(F)(F)F)cc1Cl | luminescence | 0 (inactive)
CCC(=O)N=c1sc2c(C)cc(C)cc2n1CC(=O)OC | luminescence | 0 (inactive)
CC(=O)Nc1nnc(-c2ccc(Cl)s2)o1 | luminescence | 0 (inactive)
CCc1ccc(-c2cc(C(F)(F)F)n3nc(C(=O)Nc4c(C)nn(Cc5ccccc5C)c4C)cc3n2)s1 | luminescence | 0 (inactive)
COc1ccc(-n2c(Cn3c(=O)sc4ccccc43)nnc2SCC(=O)N2CCCCC2)cc1 | luminescence | 0 (inactive)
Cc1c(Cl)cccc1NC(=O)c1cc(-c2ccccc2O)n[nH]1 | luminescence | 0 (inactive)

###

Assay Method Text: Vibrio cholerae quorum sensing activators, luminescence (AID 686977)
Assay Context: V. cholerae quorum sensing reporter, 6 h, active compounds read high; dose 50, dose unit µM unless noted
Fewer than 10 of roughly 9,400 compounds were called active. Inconclusive results (about 5%) are left out. These entries were drawn from the full list. Potency and affinity values are given separately.
Item-by-item account of luminescence
Assay Endpoint: luminescence

Compound | Assay Endpoint | Measured Value
O=C(Nc1ccc2c(c1)OCCO2)c1ccc(CN2CCOCC2)cc1 | luminescence | 0 (inactive)
O=C(O)C1CCC(=O)N(C2CCCCC2)C1c1ccccc1 (stereo not given) | luminescence | 0 (inactive)
CN[C@H]1[C@@H](O)[C@H](O[C@H]2[C@@H](O)[C@@H](OC3OC(CN)=CCC3N)[C@H](N)C[C@@H]2N)OC[C@@]1(C)O (stereo not given in full) | luminescence | 40 [dose 10, dose unit µg/mL] (inactive)
CC1CCN(C(=O)CSc2nc3c(cnn3-c3ccc(Cl)cc3)c(=O)[nH]2)CC1 | luminescence | 0 (inactive)
N#CC1(c2ccccc2)CCCN1C(=O)c1ccccc1Cl (stereo not given) | luminescence | 0 (inactive)
COC(=O)/C(=C\Nc1ccccc1N)c1ncc(C(F)(F)F)cc1Cl | luminescence | 40 (inactive)
O=C(Nc1ccc(Cl)cn1)C1CCCN1S(=O)(=O)c1ccc(Cl)cc1 (stereo not given) | luminescence | 0 (inactive)
CCn1cc(S(=O)(=O)CC(=O)Nc2cc(C)on2)c2ccccc21 | luminescence | 0 (inactive)
CCC(Cc1ccccc1)NC(=O)CN1C(=O)CSc2ncccc21 (stereo not given) | luminescence | 0 (inactive)
CCOC(=O)c1ccccc1NC(=O)c1cc(S(=O)(=O)N2CCOCC2)ccc1F | luminescence | 0 (inactive)

###

Let's look at some compounds and their measured luminescence.
Assay Method Text: Vibrio cholerae quorum sensing activators, luminescence (AID 686977)
Assay Context: V. cholerae quorum sensing reporter, 6 h, active compounds read high; dose 50, dose unit µM unless noted
Fewer than 10 of roughly 9,400 compounds were called active. Inconclusive results (about 5%) are left out. A selection follows. Measured potencies and affinities stand elsewhere.
Assay Endpoint: luminescence

Compound | Measured Value
COC(=O)c1nc2cc(C)ccn2c1F | 40
Cc1ccc(C(=O)c2ccc([N+](=O)[O-])cc2)cc1C | 40
CCCCCn1c(SCc2ccncc2)nc2cc(C(=O)NCc3ccco3)ccc2c1=O | 40
CCN(CC)c1ncnc2sc(C(=O)N3CCN(c4ccc(OC)cc4)CC3)c(C)c12 | 160
COC(=O)c1cc(COc2ccc3c4c(c(=O)oc3c2)CCCC4)c(C)o1 | 0
COc1ccccc1C(=O)N1CCNC(=O)C1CC(=O)Nc1cccc(C)c1 (stereo not given) | 0
CCc1nc2c(cnn2-c2ccc(F)cc2)c(=O)n1-c1ccc(N2CCC(C)CC2)cc1 | 0
CC(Oc1ccc(-c2ccccc2)c(F)c1)c1ccn(S(=O)(=O)c2ccc(F)cc2)n1 (stereo not given) | 120
COc1cc(NC(=O)Cn2nc(C(F)(F)F)c3c2CCCC3)cc(OC)c1OC | 280
Cc1cc(NS(=O)(=O)c2ccc(NC(=O)C(C(C)C)N3C(=O)c4ccccc4C3=O)cc2)nc(C)n1 (stereo not given) | 0

###

Known luminescence of a selection of molecules
Assay Method Text: Vibrio cholerae quorum sensing activators, luminescence (AID 686977)
Assay Context: V. cholerae quorum sensing reporter, 6 h, active compounds read high; dose 50, dose unit µM unless noted
Fewer than 10 of roughly 9,400 compounds were called active. Roughly 5% stayed inconclusive and do not appear here. Only a sample is shown. Measured potencies and affinities stand elsewhere.
Assay Endpoint: luminescence

Molecule | Measured Value
COC(=O)[C@H](C)NC(=O)Nc1cccc(C)c1 | 0
C=CCn1c(SCc2cccc(C#N)c2)nnc1-c1ccccc1O | 360
CCOC(=O)N1CCN(C(=O)CSc2nc3c([nH]c4ccccc43)c(=O)n2C)CC1 | 40
COc1ccc(-c2nc(CS(=O)CC(=O)N3CCCC3)c(C)o2)cc1 (stereo not drawn) | 0
CC(C)OC(=O)CSc1nnc(-c2ccccc2)n1N | 40
O=C(CSc1nnc(C2CC2)n1Cc1ccccc1)c1cc2ccccc2o1 | 80
CCOC(=O)C1CCCN(c2c(NCCCN(C)c3ccccc3)c(=O)c2=O)C1 (stereo not drawn) | 0
COc1ccc(NC(=O)CSc2nccn2-c2cccc(OC)c2)cc1 | 0
CCOC(=O)CSc1ccc(-c2nc3ccccc3[nH]2)cn1 | 0
CCCc1[nH]nc2c1C(C1CCCCC1)C(C#N)=C(N)O2 (stereo not drawn) | 0
Nc1nnnn1/N=C/c1ccccc1C(F)(F)F | 40
O=[N+]([O-])c1cc(-c2cnc3ccccc3n2)ccc1Oc1ccc(F)cc1 | 40
Cc1ccc2oc(=O)c3cnn(CC(=O)NC4CCN(Cc5ccccc5)CC4)c3c2c1 | 0
CCc1cccc(OCCOCCN2CCCC2)c1 | 40
COC(=O)c1ccc(NC(=O)CN(Cc2ccc(Cl)cc2)S(C)(=O)=O)cc1 | 0
COc1ccccc1N1CCN(C(=O)Oc2ccccc2)CC1 | 0
Cc1cnc(C(=O)Nc2cccc3cccnc23)cn1 | 40
O=C(NCC(c1cccnc1)N1CCN(c2ccccc2F)CC1)c1ccco1 (stereo not drawn) | 0
CC(C)C(=O)Nc1nc2cc3c(cc2s1)OCO3 | 0
Cc1ccc([N+](=O)[O-])cc1N=Cc1ccc(Br)s1 | 40
CCCNC(=O)C(NS(=O)(=O)c1ccc2c(c1)c(=O)n(C)c(=O)n2C)c1ccccc1 (stereo not drawn) | 40
COc1ccc(C(=O)Nc2cc3c(cc2C#N)OCO3)cc1S(=O)(=O)NCc1ccco1 | 0
Cn1c(=O)oc2cc(S(=O)(=O)N3CCCc4ccccc43)ccc21 | 40

###

Assay Method Text: Vibrio cholerae quorum sensing activators, luminescence (AID 686977)
Assay Context: V. cholerae quorum sensing reporter, 6 h, active compounds read high; dose 50, dose unit µM unless noted
The whole screen tested about 9,400 compounds, of which fewer than 10 were called active. Roughly 5% stayed inconclusive and do not appear here. A selection follows. Measured potencies and affinities stand elsewhere.
Parameter luminescence: see the listing below.

Compound | luminescence
COc1cccc(-c2nc(CS(=O)CC(=O)NCc3ccccc3Cl)c(C)o2)c1 (stereo not given) | 0
COc1ccc(S(=O)(=O)Cc2ccc(C(=O)NCc3ccccn3)o2)cc1 | 0
COc1cc(S(=O)(=O)N2CCC(N3CCCCC3)CC2)ccc1-n1cnnn1 | 0
COc1cc(C2Nc3ccc4ncccc4c3C3=C2C(=O)CC(C)(C)C3)cc(OC)c1O (stereo not given) | 0
COc1ccccc1NC(=O)C1=C(C)NC(=O)NC1c1ccc(C)cc1 (stereo not given) | 80
COC(=O)c1c(NC(=O)C2CC2)sc2c1CCCC2 | 40
CCOc1ccc(CCNC(=O)Cn2c(=O)oc3ccccc32)cc1OCC | 0
CCc1ccc(C2CC(c3ccc(F)cc3)Nc3nc(N)nn32)cc1 (stereo not given) | 40
CCOC(=O)N1CCC(NC(=O)C(Cc2ccccc2)NC(=O)C2CCCCC2)CC1 (stereo not given) | 0
Cc1ccn(CCSCC(=O)O)n1 | 0
CC(NC(=O)c1ccccc1Br)c1ccc2c(c1)CCCC2 (stereo not given) | 40
COc1ccc(OC)c(NC(=O)c2cn(C)c(=O)c3cc(OC)c(OC)cc23)c1 | 0
Cc1ccn2cc(CCNC(=O)C3CCCCC3)nc2c1 | 0
COC(=O)c1cc(-c2ccc(Br)cc2)n[nH]1 | 0
O=C(Nc1ccc2c(c1)CCC2)c1cc(S(=O)(=O)N2CCN(c3ccccc3)CC2)ccc1Cl | 0
CC1CCc2nn(CC(=O)NCCC3=CCCCC3)cc2C1 (stereo not given) | 0
CN(CC(=O)N1CCc2ccccc2C1)S(=O)(=O)c1ccc2c(c1)c(=O)n(C)c(=O)n2C | 40
CCCCCCN1CC(O)=C(c2ccccc2)C1=N | 0
CCOC(=O)c1sc(NCc2ccco2)c(-c2nc3ccccc3s2)c1N | 0
O=C(Nc1nccs1)c1nc(-c2ccccc2)n(-c2ccccc2)n1 | 280
CC(C)CC(=O)Nc1ccc(S(=O)(=O)NCc2ccco2)cc1 | 0
COc1ccc(NC(=O)c2c(NC(=O)CNCc3ccco3)sc3c2CCC3)c(OC)c1 | 40
COCCn1c(SCc2nc3ccccc3c(=O)[nH]2)nnc1-c1ccncc1 | 40
COc1ccc(C2N(C(=O)CN3CCOCC3)CCN2S(=O)(=O)c2ccccc2)cc1 (stereo not given) | 0
CCOC(=O)Cc1csc(-n2sc3ccccc3c2=O)n1 | 0
CCOC(=O)N1CCN(C(=O)C2CCCN(S(=O)(=O)c3cccnc3)C2)CC1 (stereo not given) | 0
N#Cc1nc(-c2cccc3ccccc23)oc1N1CCCCC1 | 0
CC(C)OC(=O)c1nnc(Cc2ccc(F)cc2)o1 | 0
COc1ccc(C(=O)NCCn2cc(SCC(=O)NCc3ccco3)c3ccccc32)cc1 | 0
CCC(C)NC(=O)CS(=O)Cc1nc(-c2cccc(OC)c2)oc1C (stereo not given) | 40
Cn1c(=O)c2c(nc(N3CCCCCC3)n2CCSc2nc3ccccc3o2)n(C)c1=O | 0
Cc1cccc(C)c1NC(=O)c1sccc1SCc1cccc(C(F)(F)F)c1 | 40
O=c1cc(NC2CCCCC2)c2ccccc2o1 | 0
CC(C)(C)c1nc2ccccc2c2nnc(SCC(=O)Nc3nccs3)n12 | 80
Cc1cc(C(=O)Nc2c(C)nn(Cc3ccc(F)cc3)c2C)on1 | 0
Cc1nnc(SCC(=O)NCc2ccco2)n1Cc1ccccc1 | 0
O=C(NC1CCCc2ccccc21)C1CCN(C(=O)c2sccc2-n2cccc2)CC1 (stereo not given) | 40
CCn1ncc(C2=NOC(C(=O)NCc3ccc(OC)cc3)C2)c1C (stereo not given) | 0
O=C(NCc1ccco1)c1nnc(Cc2ccc(Cl)cc2)o1 | 0
COC(=O)c1cc(=O)n(CCc2ccc(OC)c(OC)c2)c(=Nc2ccc(F)c(Cl)c2)s1 | 40
Cn1c(C(=O)N2CCN(Cc3ccc4c(c3)OCO4)CC2)cc2c(=O)n(C)c3ccccc3c21 | 0
CCOC(=O)COc1cccc2c(=O)n(CC(=O)N3CCc4ccccc43)ccc12 | 0
Cc1ccc(-c2nnc(SCc3nc(N)nc(Nc4ccccc4C)n3)n2N)cc1 | 0
CCOC(=O)C1=C(C)Nc2nnnn2C1c1ccc(OC)c(Br)c1 (stereo not given) | 0
BrC(=C\c1ccccc1)/C=N/N1CCN(Cc2ccccc2)CC1 | 0
